Readings of pIC50 for the listed molecules
target: Human immunodeficiency virus type 1 integrase (Human immunodeficiency virus 1, UniProt Q7ZJM1); experiment: Inhibition of HIV1 integrase-mediated integration activity
Sequence (Q7ZJM1 whole entry): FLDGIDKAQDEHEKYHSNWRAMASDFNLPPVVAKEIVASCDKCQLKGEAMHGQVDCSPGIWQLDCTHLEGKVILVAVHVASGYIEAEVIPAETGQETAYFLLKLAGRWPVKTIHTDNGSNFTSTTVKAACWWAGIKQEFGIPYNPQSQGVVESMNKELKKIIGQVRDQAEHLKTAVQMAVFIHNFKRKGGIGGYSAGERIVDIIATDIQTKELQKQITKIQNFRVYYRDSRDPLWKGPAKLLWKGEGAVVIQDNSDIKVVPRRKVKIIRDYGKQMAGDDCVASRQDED
pIC50: −log10 of the molar value.

• O=S(=O)(/C=C/c1ccccc1)CS(=O)(=O)/C=C/c1ccccc1 = < 4.00

So what does the record say about pIC50 for `O=S(=O)(/C=C/c1cc(F)c(F)c(F)c1)CS(=O)(=O)/C=C/c1cc(F)c(F)c(F)c1` ?
< 4.00

So what does the record say about pIC50 for `O=S(=O)(/C=C/c1cc(OCc2ccccc2)c(OCc2ccccc2)c(OCc2ccccc2)c1)CS(=O)(=O)/C=C/c1cc(OCc2ccccc2)c(OCc2ccccc2)c(OCc2ccccc2)c1` ?
< 4.00

So what does the record say about pIC50 for `COc1cc(OC)c(OC)cc1/C=C/S(=O)(=O)CS(=O)(=O)/C=C/c1cc(OC)c(OC)cc1OC` ?
< 3.00

So what does the record say about pIC50 for `COc1cc(Br)c(/C=C/S(=O)(=O)CS(=O)(=O)/C=C/c2cc(OC)c(OC)cc2Br)cc1OC` ?
3.30

So what does the record say about pIC50 for `O=S(=O)(CCc1ccc(O)c(O)c1)CS(=O)(=O)CCc1ccc(O)c(O)c1` ?
4.77

So what does the record say about pIC50 for `COc1ccc(Br)cc1/C=C/S(=O)(=O)CS(=O)(=O)/C=C/c1cc(Br)ccc1OC` ?
< 4.00

So what does the record say about pIC50 for `O=C(O)c1ccc(/C=C/S(=O)(=O)CS(=O)(=O)/C=C/c2ccc(C(=O)O)cc2)cc1` ?
4.48

So what does the record say about pIC50 for `O=S(=O)(/C=C/c1ccc2c(c1)OCCO2)CS(=O)(=O)/C=C/c1ccc2c(c1)OCCO2` ?
< 4.00

---

target: UniProt:Q7ZJM1; experiment: Inhibition of HIV1 integrase-mediated integration activity
property: IC50 (µM)

(1) O=S(=O)(/C=C/c1cccc(Br)n1)CS(=O)(=O)/C=C/c1cccc(Br)n1
(2) O=S(=O)(CCc1cc(F)c(F)c(F)c1)CS(=O)(=O)CCc1cc(F)c(F)c(F)c1
(3) COc1cc(/C=C/S(=O)(=O)CS(=O)(=O)/C=C/c2cc(OC)c(OC)cc2[N+](=O)[O-])c([N+](=O)[O-])cc1OC
(4) O=S(=O)(/C=C/c1ccc2[nH]ccc2c1)CS(=O)(=O)/C=C/c1ccc2[nH]ccc2c1
// rank above by IC50: first = highest number Write the labels out in the order the request specifies.
1, 3, 2, 4

---

molecular target: UniProtKB Q7ZJM1; assay: Inhibition of HIV1 integrase-mediated 3'-processing activity
property: IC50 (µM)

(1) O=S(=O)(CCc1ccc(O)c(O)c1)CS(=O)(=O)CCc1ccc(O)c(O)c1
(2) O=S(=O)(CCc1cc(F)c(F)c(F)c1)CS(=O)(=O)CCc1cc(F)c(F)c(F)c1
// which entry has the larger IC50 value, 1 or 2 ? State your choice using its label.
2
(2: 900 µM, 1: 40 µM)

---

biological target: Human immunodeficiency virus type 1 integrase (Human immunodeficiency virus 1, UniProt Q7ZJM1); test: Inhibition of HIV1 integrase-mediated 3'-processing activity
pIC50: −log10 of the molar value.
Readings of pIC50 for the listed compounds

- COc1cc(/C=C/S(=O)(=O)CS(=O)(=O)/C=C/c2cc(Br)c(OC)c(OC)c2)cc(Br)c1OC: < 4.00
- O=C(O)c1ccc(/C=C/S(=O)(=O)CS(=O)(=O)/C=C/c2ccc(C(=O)O)cc2)cc1: 4.48

Then there is this compound:
So what does the record say about pIC50 for `COc1cc(/C=C/S(=O)(=O)CS(=O)(=O)/C=C/c2cc(OC)c(OC)cc2[N+](=O)[O-])c([N+](=O)[O-])cc1OC` ?
3.30
